Quick record: IC50, Xanthine dehydrogenase/oxidase (Bos taurus, UniProt P80457).

Q: For the compound Cc1cc(-c2n[nH]c(-c3ccc(OCCO)c(C#N)c3)n2)ccn1 , what IC50 is on record?
A: 40 nM

Q: What about CCCCOCCOCCOc1ccc(-c2nc(-c3ccnc(C)c3)n[nH]2)cc1C#N ?
A: 26 nM

Q: Field entry: CC(C)COc1ccc(NC(=O)Nc2ccncc2)cc1[N+](=O)[O-]
A: 15 nM

Q: Check CC(C)COc1ccc(NC(=O)C(=O)O)cc1Cl too.
A: 7300 nM

Q: Param item: CC(C)COc1ccc(-c2n[nH]c(-c3ccncc3)n2)cc1[N+](=O)[O-]
A: 3.7 nM

Q: Consider next the compound Cc1cc(-c2n[nH]c(-c3ccc(OCCOCCOCCCl)c(C#N)c3)n2)ccn1 in the same way.
A: 21 nM

Q: Same question, Cc1cc(-c2nc(-c3ccc(OCC(C)C)c(C#N)c3)n[nH]2)ccn1 this time
A: 17 nM

Q: // next record Cc1cc(-c2nnc(-c3ccc(OCC(C)C)c([N+](=O)[O-])c3)[nH]2)cc(Cl)n1
A: > 10000 nM

Q: // repeat for COCCOCCOc1ccc(-c2nc(-c3ccnc(C)c3)n[nH]2)cc1C#N and report
A: 31 nM

###

TEST METHOD NOTES: Cmax in rat at 1 mg/kg, po
Assay type: ADME, organism-based
Parameters: dose 1 mg/kg, route oral
ASSAY CONTEXT: in vivo
Could you please report measured Cmax for the items listed next?
Express it in ng/mL; write the number only.

Q: Given Cc1cc(-c2nc(-c3ccc(OCC(C)C)c(C#N)c3)n[nH]2)ccn1 , state its recorded Cmax.
A: 4.5

Q: Subsequent entry: Cc1cc(-c2nc(-c3ccc(OCC(C)C)c([N+](=O)[O-])c3)n[nH]2)ccn1
A: 7.8

Q: Do the same for CC(C)COc1ccc(-c2n[nH]c(-c3ccncc3)n2)cc1[N+](=O)[O-] please
A: 13.8

###

Hi there, I'd appreciate the recorded half-life for every entry that follows.
TEST METHOD NOTES: Half life in rat at 3 mg/kg, po
Assay type: ADME, organism-based
Parameters: dose 3 mg/kg, route oral
ASSAY CONTEXT: in vivo
Note to self: number, then unit, no commentary.

Q: What value of measured half-life is listed for Cc1cc(-c2nc(-c3ccc(OCC(C)C)c(C#N)c3)n[nH]2)ccn1 ?
A: 22.2 min

Q: What about Cc1cc(-c2n[nH]c(-c3ccc(OCCOCCOCCCl)c(C#N)c3)n2)ccn1 ?
A: 31.2 min

Q: Please answer likewise for COCCOCOc1ccc(-c2nc(-c3ccnc(C)c3)n[nH]2)cc1C#N
A: 27 min

Q: Param item: COCCOCCOc1ccc(-c2nc(-c3ccnc(C)c3)n[nH]2)cc1C#N
A: 58.2 min

###

Answer each item with its documented Cmax.
TEST METHOD NOTES: Cmax in rat at 3 mg/kg, po
Format: ADME, organism-based
Design: dose 3 mg/kg, route oral
ASSAY CONTEXT: in vivo
Respond with the bare value in ng/mL.

Q: Given the molecule Cc1cc(-c2nc(-c3ccc(OCC(C)C)c(C#N)c3)n[nH]2)ccn1 , what is its reported Cmax?
A: 16.7

Q: Next record, please: Cc1cc(-c2n[nH]c(-c3ccc(OCCOCCOCCCl)c(C#N)c3)n2)ccn1
A: 684

Q: What about COCCOCOc1ccc(-c2nc(-c3ccnc(C)c3)n[nH]2)cc1C#N ?
A: 360

Q: Now give it for COCCOCCOc1ccc(-c2nc(-c3ccnc(C)c3)n[nH]2)cc1C#N too.
A: 712

Hello, the source for this data is ChEMBL document CHEMBL1139290, in case you need it.
